# TEST_DETAILS: Acute toxicity test
# Set-up: species or system ICR mice
# MEASUREMENT_PARAMETERS: mouse, in vivo, ip
READOUT: LD50 at 168 h

{"columns": ["COMPOUND_STRUCTURE", "REPORTED_RESULT"],
 "data": [
  ["CCCC(=O)Nc1ncnc2c1ncn2[C@@H]1O[C@H](CO)C[C@H]1O", "710 mg/kg"]
]}
